Cited source for all entries: PubChem BioAssay (NCI)

A collection of compounds and their measured growth
- Tested on: NCI-H226 lung
- Experimental protocol: NCI-60 one-dose screen, 48 h (100 = growth as untreated, 0 = no growth, -100 = all killed)
- Particulars: 10 µM unless noted
About 83,000 compounds went through this panel and 20% of them were active in at least one assay; those are over-represented in the sample as a whole.
All answers are understood in %, so give the number only.

CC(C)Sc1nc(NCCc2c[nH]c3ccccc23)c(C#N)c(-c2ccc(F)cc2)n1 = 54.5
COc1ccc(/C=C/c2nc3ccccc3c(=O)n2CC(=O)Nc2ccc(OC)cc2)cc1 = 61.1
COc1cccc(-c2nc(Nc3ccc(S(N)(=O)=O)cc3)c3ccccc3n2)c1 = 25.9
COc1cc2oc(-c3cccc(C(=O)Nc4ccc(Cl)cc4)c3)cc(=O)c2c(OCC(=O)N[C@@H](Cc2ccccc2)C(=O)O)c1OC = 102

Please turn your attention to the following entry.
Problem: Which measured growth value corresponds to O=C(NNc1nc2cc(C(F)(F)F)ccc2n2cccc12)c1cnccn1 ?
Solution: -53.5
